Where these numbers come from: ChEMBL document CHEMBL3393036

Below: a set of entries, each annotated with reported Ratio IC50.
# Organism: Homo sapiens
# assay.name: Selectivity ratio of IC50 for JNK3 (unknown origin) to IC50 for p38alpha (unknown origin)

>  <molecular.string>
COC(Cn1c(SCCC(=O)O)nc(-c2ccc(F)cc2)c1-c1ccnc(NC(C)=O)c1)OC

>  <Ratio IC50>
0.2

$$$$
>  <molecular.string>
CC(=O)Nc1cc(-c2c(-c3ccc(F)cc3)nc(SCC(=O)N(C)C)n2C)ccn1

>  <Ratio IC50>
8.5

$$$$
>  <molecular.string>
O=C(O)/C=C\Sc1nc(-c2ccc(F)cc2)c(-c2ccnc(Nc3ccccc3)c2)[nH]1

>  <Ratio IC50>
0.5

$$$$
>  <molecular.string>
CCOC(=O)/C=C/Sc1nc(-c2ccc(F)cc2)c(-c2ccnc(NC(C)=O)c2)n1CC(OC)OC

>  <Ratio IC50>
1

$$$$
>  <molecular.string>
CCOC(=O)/C=C\Sc1nc(-c2ccc(F)cc2)c(-c2ccnc(Nc3ccccc3)c2)[nH]1

>  <Ratio IC50>
0.5

$$$$
>  <molecular.string>
CC(=O)Nc1cc(-c2c(-c3ccc(F)cc3)nc(S/C=C\C(=O)O)n2CC2CCCCC2)ccn1

>  <Ratio IC50>
0.6

$$$$
>  <molecular.string>
COC(Cn1c(SCC#N)nc(-c2ccc(F)cc2)c1-c1ccnc(F)c1)OC

>  <Ratio IC50>
6.6

$$$$
>  <molecular.string>
CC(=O)Nc1cc(-c2c(-c3ccc(F)cc3)nc(S/C=C\C(=O)O)n2C2CCC2)ccn1

>  <Ratio IC50>
0.2

$$$$

----------
# study.target: Mitogen-activated protein kinase 14 (Homo sapiens, UniProt Q16539)
# Sequence (Q16539 whole entry): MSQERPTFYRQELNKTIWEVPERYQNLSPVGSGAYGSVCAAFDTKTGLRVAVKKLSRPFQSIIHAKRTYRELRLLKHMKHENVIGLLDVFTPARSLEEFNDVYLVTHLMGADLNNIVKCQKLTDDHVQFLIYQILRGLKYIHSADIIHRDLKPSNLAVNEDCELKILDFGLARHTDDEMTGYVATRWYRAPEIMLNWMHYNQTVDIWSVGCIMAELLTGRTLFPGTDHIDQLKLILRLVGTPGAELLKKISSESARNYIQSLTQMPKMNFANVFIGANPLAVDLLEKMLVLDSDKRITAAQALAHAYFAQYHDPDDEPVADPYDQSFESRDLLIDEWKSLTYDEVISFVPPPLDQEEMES
# assay.name: Inhibition of p38alpha (unknown origin) assessed as phosphorylation of ATF-2 by ELISA
pIC50: −log10 of the molar value.
Below: a set of entries, each annotated with reported pIC50.
measurement.label: pIC50

>  <molecule>
CC(=O)Nc1cc(-c2c(-c3ccc(F)cc3)nc(SCC(=O)N(C)C)n2C)ccn1

>  <measurement.label>
pIC50

>  <endpoint.value>
6.85

$$$$
>  <molecule>
CC(=O)Nc1cc(-c2c(-c3ccc(F)cc3)nc(Sc3cccc(I)n3)n2C2CCCCC2)ccn1

>  <measurement.label>
pIC50

>  <endpoint.value>
6.45

$$$$
>  <molecule>
CC(=O)Nc1cc(-c2c(-c3ccc(F)cc3)nc(SC3CCC(C(=O)O)CC3O)n2CC2CCCO2)ccn1 (racemic)

>  <measurement.label>
pIC50

>  <endpoint.value>
6.21

$$$$
>  <molecule>
CC(=O)Nc1cc(-c2c(-c3ccc(F)cc3)nc(SCC(=O)O)n2C)ccn1

>  <measurement.label>
pIC50

>  <endpoint.value>
5.78

$$$$
>  <molecule>
CCNC(=O)N1CCC(Nc2cc(-c3c(-c4ccc(F)cc4)nc(S/C=C\C(=O)O)n3C)ccn2)CC1

>  <measurement.label>
pIC50

>  <endpoint.value>
6.84

$$$$
>  <molecule>
COC(Cn1c(SCC#N)nc(-c2ccc(F)cc2)c1-c1ccnc(F)c1)OC

>  <measurement.label>
pIC50

>  <endpoint.value>
6.19

$$$$
>  <molecule>
CCOC(=O)/C=C\Sc1nc(-c2ccc(F)cc2)c(-c2ccnc(Nc3ccccc3)c2)[nH]1

>  <measurement.label>
pIC50

>  <endpoint.value>
6.84

$$$$
>  <molecule>
CC(=O)Nc1cc(-c2c(-c3ccc(F)cc3)nc(S/C=C\C(=O)O)n2C2CCCC2)ccn1

>  <measurement.label>
pIC50

>  <endpoint.value>
6.79

$$$$
>  <molecule>
O=C(O)/C=C\Sc1nc(-c2ccc(F)cc2)c(-c2ccnc(Nc3ccccc3)c2)n1CC1CC1

>  <measurement.label>
pIC50

>  <endpoint.value>
6.45

$$$$
>  <molecule>
CC(=O)Nc1cc(-c2c(-c3ccc(F)cc3)nc(SCCC(=O)O)n2C)ccn1

>  <measurement.label>
pIC50

>  <endpoint.value>
6.61

$$$$
>  <molecule>
CC(=O)Nc1cc(-c2c(-c3ccc(F)cc3)nc(S/C=C\C(=O)O)n2C2CCC2)ccn1

>  <measurement.label>
pIC50

>  <endpoint.value>
6.68

$$$$
>  <molecule>
CC(=O)Nc1cc(-c2c(-c3ccc(F)cc3)nc(S/C=C\C(=O)O)n2CC2CCCO2)ccn1 (racemic)

>  <measurement.label>
pIC50

>  <endpoint.value>
6.65

$$$$
>  <molecule>
COC(Cn1c(SCC#N)nc(-c2ccc(F)cc2)c1-c1ccnc(NC2CC2)c1)OC

>  <measurement.label>
pIC50

>  <endpoint.value>
6.82

$$$$
>  <molecule>
COC(=O)CSc1nc(-c2ccc(F)cc2)c(-c2ccnc(NC(C)=O)c2)n1C

>  <measurement.label>
pIC50

>  <endpoint.value>
6.53

$$$$
